Experiment: Prodrug stability in rat plasma in vitro
Format: in vitro ADME
Settings: 2.0 μM, 37° C.
ENDPOINT NAME: % of Prodrug Remaining after 60 min (%)

COMPOUND STRUCTURE | UNIT STRING | % of Prodrug Remaining after 60 min
CCCC(=O)OCOC(=O)NC[C@H](CC(=O)[O-])c1ccc(Cl)cc1.[Na+] | % | 54

[I] CC(C)C(=O)O[C@H](OC(=O)NC[C@H](CC(=O)[O-])c1ccc(Cl)cc1)C(C)C.[Na+]
[II] CCCC(=O)O[C@H](CCC)OC(=O)NC[C@H](CC(=O)[O-])c1ccc(Cl)cc1.[Na+]
[III] CCCC(=O)O[C@H](OC(=O)NC[C@H](CC(=O)[O-])c1ccc(Cl)cc1)C(C)C.[Na+]
Exam item: Highest % of Prodrug Remaining after 60 min first, then in falling order down to the smallest. When ranking, write the labels in the order the request describes.
Marked response: I, III, II

Data credit: patent US10385014B2
